The reported numbers originate from paper PMC4072508.

test-target: Bcl-xL, Q07817
Sequence (Q07817 1-209): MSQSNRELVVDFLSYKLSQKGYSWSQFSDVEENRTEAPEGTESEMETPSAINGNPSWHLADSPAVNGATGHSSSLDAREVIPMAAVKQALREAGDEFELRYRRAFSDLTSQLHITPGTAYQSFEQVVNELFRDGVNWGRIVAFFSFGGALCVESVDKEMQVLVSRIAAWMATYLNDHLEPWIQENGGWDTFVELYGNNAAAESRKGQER
measurement-description: peptide SPOT array, c-Myc-tagged receptor at 1 uM or 100 nM, anti-c-Myc-Cy3
Think of 0.1 as a floor: if SPOT signal as a fraction of Bim BH3's signal on the same receptor and array stands on it or above, it is Satisfied; beneath it, Not satisfied.

Previously resolved entries follow.
{"binder": "EKNLPKMAEALAHGADVNWANSEENK [ACAP2]", "label-value": "Not satisfied"}
{"binder": "LRQMQECAKRIAKVSAEAKLEIDEET [SKIV2L2]", "label-value": "Not satisfied"}
{"binder": "LGHTGLACLFLKRGADLGARDSEGRD [ACAP1]", "label-value": "Satisfied"}

Task: State whether the measured SPOT signal as a fraction of Bim BH3's signal on the same receptor and array reaches 0.1, counting equality as reaching it, for PFNIQDYAEALKNYAASIYNLSKKHD [NAALAD2]
Result: Not satisfied

Task: Check the entry EEIIHKLAMQLRHILDNIDHRMVRED [PXT1] : does SPOT signal as a fraction of Bim BH3's signal on the same receptor and array equal or exceed 0.1?
Result: Not satisfied

Task: Exam item: decide whether the reported SPOT signal as a fraction of Bim BH3's signal on the same receptor and array for TPSRSALSSEDSLVGDTTGDTLEKFV [CREBBP] is at least 0.1.
Result: Not satisfied

Task: Reported SPOT signal as a fraction of Bim BH3's signal on the same receptor and array reaches at least 0.1 for LSIIYTLVEIDQNIGDTNLADFTAGL [SLC26A4] ?
Result: Not satisfied

Task: Check the entry TVATRRLSGFLRTLADRLEGTKELLS [MINA] : does SPOT signal as a fraction of Bim BH3's signal on the same receptor and array equal or exceed 0.1?
Result: Satisfied

Task: Please indicate if the recorded SPOT signal as a fraction of Bim BH3's signal on the same receptor and array for HPRRESQVRQDAWIGDGVWVSIRLDS [MAPK8IP3] meets or exceeds 0.1.
Result: Not satisfied

Task: Determine whether this binder has SPOT signal as a fraction of Bim BH3's signal on the same receptor and array no lower than 0.1: EAVTDGLKRADRSFGNALGNCILDKD [RAD52]
Result: Not satisfied

Task: # check: SPOT signal as a fraction of Bim BH3's signal on the same receptor and array of VHKHSRLAEVLQLGLDILPQYKQEAP [KCNH1] is greater than or equal to 0.1
Result: Satisfied
